Tested On: DPP4 (Homo sapiens, UniProt P27487)
Sequence (P27487 whole entry): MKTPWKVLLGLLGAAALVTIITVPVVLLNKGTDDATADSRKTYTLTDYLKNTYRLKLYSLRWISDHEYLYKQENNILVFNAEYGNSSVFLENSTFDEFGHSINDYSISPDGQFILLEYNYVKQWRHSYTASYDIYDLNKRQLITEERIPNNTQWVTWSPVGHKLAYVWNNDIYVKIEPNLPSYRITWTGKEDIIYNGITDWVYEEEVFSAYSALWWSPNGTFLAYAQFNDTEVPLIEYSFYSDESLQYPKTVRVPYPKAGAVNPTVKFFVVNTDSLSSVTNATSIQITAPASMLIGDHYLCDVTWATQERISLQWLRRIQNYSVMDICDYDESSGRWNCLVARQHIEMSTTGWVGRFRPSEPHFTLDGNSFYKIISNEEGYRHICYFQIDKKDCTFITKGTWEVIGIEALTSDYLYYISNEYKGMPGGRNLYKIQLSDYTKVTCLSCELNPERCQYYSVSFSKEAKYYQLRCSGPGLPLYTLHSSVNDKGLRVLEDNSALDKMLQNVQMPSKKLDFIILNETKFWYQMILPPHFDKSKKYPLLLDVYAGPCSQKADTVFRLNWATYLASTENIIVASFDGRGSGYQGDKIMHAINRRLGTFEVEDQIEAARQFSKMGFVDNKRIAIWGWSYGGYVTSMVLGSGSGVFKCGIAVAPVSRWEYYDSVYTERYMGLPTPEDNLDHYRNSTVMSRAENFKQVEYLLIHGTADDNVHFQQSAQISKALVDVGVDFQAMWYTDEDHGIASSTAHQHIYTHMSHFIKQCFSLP
Method Notes: DPP4 activity assay (DPP4 inhibitor screening assay kit, Cayman);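 also: fluorescence read at excitation 360 nm and emission 460 nm after the enzyme reaction ran 30 min at 37 °C in a 96-well plate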
Assay type: biochemical
Set-up: purchased Cayman Chemical, Ann Arbor, MI, USA
Assay Conditions: 0.5 h, 10 µM; control mean 100.0; Figure 1A raw data; read-out: DPP4 activity in library screen, Exp 3
Listed here are compounds together with their documented remaining activity at 10 µM.
Numbers only here, please. The scale is %.

Solved cases below.
1. COc1ccc([C@@H]2CC(=O)c3c(O)cc(O)cc3O2)cc1O = 78.5
2. C[C@@H]1CC[C@@]2(OC1)O[C@H]1C[C@H]3[C@@H]4CC=C5C[C@@H](O[C@@H]6O[C@H](CO)[C@@H](O[C@@H]7O[C@@H](C)[C@H](O)[C@@H](O)[C@H]7O)[C@H](O)[C@H]6O[C@@H]6O[C@@H](C)[C@H](O)[C@@H](O)[C@H]6O)CC[C@]5(C)[C@H]4CC[C@]3(C)[C@H]1[C@@H]2C = 79.1

Turning now to a further record.
Req: Can you share its remaining activity at 10 µM? I mean this compound: COc1ccc(-c2oc3c(CC=C(C)C)c(O[C@@H]4O[C@H](CO)[C@@H](O)[C@H](O)[C@H]4O)cc(O)c3c(=O)c2O[C@@H]2O[C@@H](C)[C@H](O)[C@@H](O)[C@H]2O)cc1
Resp: 78.7
